# measured_target: Grp94 (Canis lupus familiaris, UniProt P41148)
# Sequence (P41148 with tags, fused parts or gaps DELINS287-327GGGG): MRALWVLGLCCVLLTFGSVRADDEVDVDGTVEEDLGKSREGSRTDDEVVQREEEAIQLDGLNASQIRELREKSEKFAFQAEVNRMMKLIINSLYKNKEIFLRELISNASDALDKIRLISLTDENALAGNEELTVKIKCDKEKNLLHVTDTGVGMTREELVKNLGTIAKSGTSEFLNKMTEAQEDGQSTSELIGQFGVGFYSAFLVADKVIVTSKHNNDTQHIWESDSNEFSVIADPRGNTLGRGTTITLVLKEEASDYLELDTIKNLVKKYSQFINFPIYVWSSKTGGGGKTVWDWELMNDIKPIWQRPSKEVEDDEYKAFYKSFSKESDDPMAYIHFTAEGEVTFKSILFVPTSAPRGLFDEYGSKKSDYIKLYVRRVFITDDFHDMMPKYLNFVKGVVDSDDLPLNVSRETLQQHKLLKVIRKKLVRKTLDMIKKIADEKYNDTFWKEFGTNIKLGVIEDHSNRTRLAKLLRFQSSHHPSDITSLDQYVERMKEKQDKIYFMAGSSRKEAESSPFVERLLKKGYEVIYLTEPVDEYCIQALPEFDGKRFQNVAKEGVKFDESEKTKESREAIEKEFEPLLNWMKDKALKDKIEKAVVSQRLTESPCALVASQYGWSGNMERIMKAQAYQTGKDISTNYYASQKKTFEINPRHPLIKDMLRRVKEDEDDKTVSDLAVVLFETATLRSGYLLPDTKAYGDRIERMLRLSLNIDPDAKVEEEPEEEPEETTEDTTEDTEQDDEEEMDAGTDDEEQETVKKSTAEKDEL
# measurement_parameters: read-out: Grp94; FP competition, 6 nM Cy3B-GM, 10 nM protein, 4° C. for 24 h
readout_name: pIC50
Note: pIC50 values are expressed as the negative base-10 logarithm of concentration in M.

// worked examples, pIC50 included
molecule	readout_name	recorded_value
CCCC(C)n1c(Sc2ccc(Cl)cc2Cl)nc2c(N)ncnc21 (stereo not drawn)	pIC50	5.61
C#CCCCn1cnc(N)c2nc(Sc3cc(Cl)cc(Cl)c3Cl)nc1-2 [PDP-125B]	pIC50	5.28
C#CCCCn1c(Oc2ccc(Cl)cc2Cl)nc2c(N)ncnc21	pIC50	6.30
C#CCCCCn1c(Sc2cc(Cl)cc(Cl)c2)nc2c(N)ncnc21 [PDP-112A]	pIC50	6.19
C#Cc1cc(Cl)cc(Sc2nc3c(N)ncnc3n2CCCNC(C)C)c1	pIC50	6.05
C#CCCCn1c(Sc2cc(Cl)nc(Cl)c2)nc2c(N)ncnc21	pIC50	5.72
Nc1ncnc2c1nc(Sc1cc(Cl)cc(Cl)c1)n2CCC(F)(F)F	pIC50	6.24

**Q:** Which pIC50 value is on record for "CC(C)NCCCn1c(Sc2cc(Cl)cc(Cl)c2)nc2c(N)nc(F)nc21" ?
**A:** 6.87

---

pIC50: −log10 of the molar value.
Let's go through some recorded pIC50 values for Hsp90β (Homo sapiens, UniProt P08238) together.

compound	pIC50
C#CCCCn1cnc(N)c2nc(Sc3cc(Br)cc(OC(F)(F)F)c3)nc1-2 [PDP-120B]	< 4.00
C#CCCCn1c(Sc2ccc(Br)cc2CC)nc2c(N)ncnc21	< 4.30
Nc1ncnc2c1nc(Sc1cc(Cl)cc(Cl)c1)n2CCc1ccccc1	< 4.00
CCC[C@H](C)n1c(Cc2cc(OC)c(OC)c(OC)c2)nc2c(N)ncnc21	< 3.60

Okay, now this compound:
**Q:** API: value(readout= pIC50, system= Hsp90β (Homo sapiens, UniProt P08238), query= CC(Br)CCCn1c(Sc2cc(Cl)cc(Cl)c2)nc2c(N)ncnc21 (centres unmarked) [PDP-99A] )
**A:** < 4.00

---

# measured_target: Trap-1 (Homo sapiens, UniProt Q12931)
# Sequence (Q12931 60-704): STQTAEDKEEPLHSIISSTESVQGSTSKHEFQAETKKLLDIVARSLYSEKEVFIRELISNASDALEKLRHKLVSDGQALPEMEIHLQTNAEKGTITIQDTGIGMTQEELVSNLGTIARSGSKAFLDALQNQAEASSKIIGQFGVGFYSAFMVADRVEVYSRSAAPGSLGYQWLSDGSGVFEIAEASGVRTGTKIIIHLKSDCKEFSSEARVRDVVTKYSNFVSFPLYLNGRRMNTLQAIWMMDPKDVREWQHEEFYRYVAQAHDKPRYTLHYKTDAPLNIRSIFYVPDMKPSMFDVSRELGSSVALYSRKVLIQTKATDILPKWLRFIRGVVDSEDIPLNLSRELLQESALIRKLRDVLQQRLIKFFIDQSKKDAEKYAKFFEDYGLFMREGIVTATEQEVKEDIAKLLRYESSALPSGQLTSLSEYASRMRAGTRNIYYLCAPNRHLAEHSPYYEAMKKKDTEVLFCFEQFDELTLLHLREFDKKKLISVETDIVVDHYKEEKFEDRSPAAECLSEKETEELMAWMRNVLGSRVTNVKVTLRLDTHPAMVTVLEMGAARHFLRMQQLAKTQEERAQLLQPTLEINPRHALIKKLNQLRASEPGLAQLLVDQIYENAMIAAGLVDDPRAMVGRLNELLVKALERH
# measurement_parameters: read-out: Trap-1 IC50; 43a as FP probe
readout_name: IC50 (µM)
API: value field is a number in µM; no unit string.

// worked examples, IC50 included
compound	readout_name	recorded_value
Nc1ncnc2c1ncn2[C@@H]1O[C@H](COP(=O)(O)OP(=O)(O)OP(=O)(O)O)[C@@H](O)[C@H]1O [ATP]	IC50	31.3
Nc1ncnc2c1ncn2[C@@H]1O[C@H](COP(=O)(O)OP(=O)(O)O)[C@@H](O)[C@H]1O [ADP]	IC50	55.6

**Q:** API: value(readout= IC50, system= Trap-1 (Homo sapiens, UniProt Q12931), query= C=CCNC1=C2C[C@@H](C)C[C@H](OC)[C@H](O)[C@@H](C)/C=C(\C)[C@H](OC(N)=O)[C@@H](OC)/C=C\C=C(/C)C(=O)NC(=CC1=O)C2=O [Compound 17-AAG] )
**A:** 1.5

---

Measured IC50, listed per entry for reference.
# measured_target: Hsp90β (Homo sapiens, UniProt P08238)
# Sequence (P08238 whole entry): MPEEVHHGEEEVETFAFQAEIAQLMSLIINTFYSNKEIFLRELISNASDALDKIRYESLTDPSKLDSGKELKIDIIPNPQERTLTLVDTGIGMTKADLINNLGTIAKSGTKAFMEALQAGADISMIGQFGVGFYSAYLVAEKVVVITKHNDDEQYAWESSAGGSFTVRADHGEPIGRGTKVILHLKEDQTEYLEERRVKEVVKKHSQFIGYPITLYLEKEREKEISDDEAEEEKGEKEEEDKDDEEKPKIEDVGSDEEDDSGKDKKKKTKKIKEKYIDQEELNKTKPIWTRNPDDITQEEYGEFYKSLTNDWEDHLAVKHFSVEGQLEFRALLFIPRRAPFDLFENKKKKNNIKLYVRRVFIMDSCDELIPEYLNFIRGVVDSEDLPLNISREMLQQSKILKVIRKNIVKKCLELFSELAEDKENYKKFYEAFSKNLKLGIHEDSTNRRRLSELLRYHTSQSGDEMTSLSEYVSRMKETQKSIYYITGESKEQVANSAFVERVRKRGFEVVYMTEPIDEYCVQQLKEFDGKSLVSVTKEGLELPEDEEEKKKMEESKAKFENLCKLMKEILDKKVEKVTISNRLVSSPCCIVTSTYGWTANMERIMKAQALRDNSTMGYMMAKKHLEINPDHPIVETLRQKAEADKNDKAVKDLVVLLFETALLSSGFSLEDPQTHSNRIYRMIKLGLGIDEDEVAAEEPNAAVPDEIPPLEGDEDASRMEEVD

// worked examples, IC50 included
compound	measured_target	IC50
C#CCCCn1cnc(N)c2nc(Sc3cc(Cl)cc(Cl)c3Cl)nc1-2 [PDP-125B]	Hsp90β (Homo sapiens, UniProt P08238)	> 100 µM
C#CCCCn1c(Sc2ccc(Cl)c(Cl)c2Cl)nc2c(N)ncnc21 [PDP-126A]	Hsp90β (Homo sapiens, UniProt P08238)	18.3 µM
C#CCCCn1cnc(N)c2nc(Sc3ccc(OC)cc3OC)nc1-2	Hsp90β (Homo sapiens, UniProt P08238)	> 100 µM
C#CCCCn1cnc(N)c2nc(Sc3ccc(Cl)cc3Cl)nc1-2	Hsp90β (Homo sapiens, UniProt P08238)	> 500 µM
Nc1ncn(Cc2ccccc2)c2nc(Sc3cc(Cl)cc(Cl)c3)nc1-2 [PDP-107B]	Hsp90β (Homo sapiens, UniProt P08238)	> 100 µM
Nc1ncn(CCC(F)(F)F)c2nc(Sc3cc(Cl)cc(Cl)c3)nc1-2	Hsp90β (Homo sapiens, UniProt P08238)	> 100 µM
Nc1ncnc2c1nc(Sc1cc(Cl)cc(Cl)c1)n2CC1CCCCC1 [PDP-110A]	Hsp90β (Homo sapiens, UniProt P08238)	> 100 µM
C#CCCCn1cnc(N)c2nc(Sc3ccc(C)cc3C)nc1-2	Hsp90β (Homo sapiens, UniProt P08238)	> 250 µM
CC#CCn1cnc(N)c2nc(Sc3cc(Cl)cc(Cl)c3)nc1-2 [PDP-102B]	Hsp90β (Homo sapiens, UniProt P08238)	> 100 µM
N#CCCCn1c(Sc2cc(Cl)cc(Cl)c2)nc2c(N)ncnc21 [PDP-93A]	Hsp90β (Homo sapiens, UniProt P08238)	> 100 µM

**Q:** API: value(readout= IC50, system= Hsp90β (Homo sapiens, UniProt P08238), query= "COc1cc(Cc2nc3c(N)ncnc3n2C(C)C)cc(OC)c1OC" )
**A:** > 250 µM

**Q:** API: value(readout= IC50, system= Hsp90β (Homo sapiens, UniProt P08238), query= C#CCCCn1c(Sc2cc(Br)cc(I)c2)nc2c(N)ncnc21 [PDP-108A] )
**A:** > 100 µM

**Q:** API: value(readout= IC50, system= Hsp90β (Homo sapiens, UniProt P08238), query= Nc1ncnc2c1nc(Sc1cc(Cl)cc(Cl)c1)n2CCCCC(F)(F)F [PDP-109A] )
**A:** > 100 µM

**Q:** API: value(readout= IC50, system= Hsp90β (Homo sapiens, UniProt P08238), query= CC#CCn1c(Sc2cc(Cl)cc(Cl)c2)nc2c(N)ncnc21 [PDP-102A] )
**A:** > 100 µM

**Q:** API: value(readout= IC50, system= Hsp90β (Homo sapiens, UniProt P08238), query= C#CCCCn1c(Sc2ccc(Cl)cc2C(F)(F)F)nc2c(N)ncnc21 [PDP-117A] )
**A:** > 100 µM

**Q:** API: value(readout= IC50, system= Hsp90β (Homo sapiens, UniProt P08238), query= "C#CCCCn1cnc(N)c2nc(Sc3ccccc3OC)nc1-2" )
**A:** > 100 µM

---

# assay_text: in vivo
# Parameters: species or system mouse
# measurement_parameters: female, nu/nu athymic, mouse, tumor, intraperitoneal; single dose of 75 mg/kg, 24 h post-administration
readout_name: concentration at 24 h
Could you write the number and then its unit?

**Q:** Which concentration at 24 h value is on record for "CC(C)NCCCn1c(Sc2cc(Cl)cc(Cl)c2)nc2c(N)ncnc21" ?
**A:** 500 nM

---

# measured_target: Grp94 (Canis lupus familiaris, UniProt P41148)
# measurement_parameters: read-out: Grp94; FP competition, 6 nM Cy3B-GM, 10 nM protein, 4° C. for 24 h
Measured IC50, listed per entry for reference.
API: value field is a number in µM; no unit string.

// worked examples, IC50 included
molecule	measured_target	IC50 / µM
Nc1ncnc2c1nc(Sc1ccc(Cl)cc1Cl)n2CCc1ccccc1C(F)(F)F	Grp94 (Canis lupus familiaris, UniProt P41148)	0.71
C#CCCCn1cnc(N)c2nc(Sc3ccc(Cl)c(Cl)c3Cl)nc1-2 [PDP-126B]	Grp94 (Canis lupus familiaris, UniProt P41148)	8.7
C#CCCCn1c(Sc2ccccc2OC(F)(F)F)nc2c(N)ncnc21	Grp94 (Canis lupus familiaris, UniProt P41148)	1.4
C#CCCCn1c(Cc2c(Cl)cccc2Cl)nc2c(N)ncnc21	Grp94 (Canis lupus familiaris, UniProt P41148)	13.8

**Q:** Which IC50 value is on record for "C#CCCCn1c(Sc2cc(Cl)cc3c(Cl)ccnc23)nc2c(N)ncnc21" ?
**A:** 2.78

**Q:** Which IC50 value is on record for "Cc1ccc(-c2cc(Cl)cc(Sc3nc4c(N)ncnc4n3CCCNC(C)C)c2)o1" ?
**A:** 0.75

**Q:** Which IC50 value is on record for "C#CCCCn1c(Sc2cc(C)cc(C)c2)nc2c(N)ncnc21" ?
**A:** 11.5

---

# measured_target: Hsp90α (Homo sapiens)
# assay_text: biochemical
# measurement_parameters: FP competition, 6 nM Cy3B-GM, 10 nM protein, 4° C. for 24 h
Measured IC50, listed per entry for reference.

// worked examples, IC50 included
compound	IC50
Nc1ncn(CCCC(F)(F)F)c2nc(Sc3cc(Cl)cc(Cl)c3)nc1-2	> 50 µM
CC(C)NCCCn1c(Sc2ccc(Cl)cc2F)nc2c(N)ncnc21 [HJP-VI-23]	> 50 µM
C#CCCCn1cnc(N)c2nc(Sc3cc(Cl)ccc3C(F)(F)F)nc1-2 [PU-H53]	> 100 µM

**Q:** API: value(readout= IC50, system= Hsp90α (Homo sapiens), query= C#CCCCCn1cnc(N)c2nc(Sc3cc(Cl)cc(Cl)c3)nc1-2 [PDP-112B] )
**A:** > 100 µM

**Q:** API: value(readout= IC50, system= Hsp90α (Homo sapiens), query= Nc1ncnc2c1nc(Sc1ccc(Cl)cc1Cl)n2CCc1ccccn1 [HJP-V-93] )
**A:** > 50 µM
